Just for reference, PubChem BioAssay (NCATS) is where these values come from.

assay: Quantitative High-Throughput drug screen in 47 multiple myeloma cell lines against the NCATS MIPE library collection: SKMM1_PLB cell viability assay (AID 1919863); settings: SKMM1 myeloma viability, CellTiter-Glo ATP, 48 h; stronger effect = lower value; note: nearly all actives have a fitted effect of over 35% in size
Records with an inconclusive call do not appear.
# maps each entry to its viability
Enter your answer as a number in %; do not include the unit.

Before answering, review these 3 worked examples.
Compound | viability, %
COc1nc(-c2ccc3c(c2)OCO3)n(-c2ccc(NC(=O)CSc3ccccc3)cc2)n1 | 123
CC(=O)Oc1ccccc1C(=O)O | 129
O=C(c1cc(Cc2n[nH]c(=O)c3ccccc23)ccc1F)N1CCN(C(=O)C2CC2)CC1 | 93.3

[Q] What value of viability has been recorded for this entry: NCCCC(N)(C(=O)O)C(F)F (configuration not stated)
[A] 97

[Q] What value of viability has been recorded for this entry: CC(c1cc2ccccc2s1)N(O)C(N)=O (configuration not stated)
[A] 118

[Q] What value of viability has been recorded for this entry: COc1cc(Nc2ncc3c(n2)-c2ccc(Cl)cc2C(c2c(F)cccc2OC)=NC3)ccc1C(=O)O
[A] 78.9

* * *

experiment: qHTS for differential inhibitors of proliferation of Plasmodium falciparum line D10 (AID 1877); details: series mostly up to 28.7 µM;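 note: parasites grown with compound for 72 h before DNA staining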
Records with an inconclusive call do not appear. Activity calls are given as the source filed them. Calls come from the whole dose curve; as a rule, active = well fitted curve in the direction sought with a large enough effect; inconclusive = small, poorly fitted or top-dose-only effect, or another doubt; inactive = no such curve, though single readings can be large or run the other way.
Lab note: assign the record to one of true = active, false = inactive

Past entries and their recorded results:
Molecule | Qualitative Label
Cc1ccc(N(CC2=NCCN2)c2cccc(O)c2)cc1 | false
CCC(C)N(C)C(=O)c1cc2ccccc2c(-c2ccccc2Cl)n1 (stereo not given) | true
Cc1[nH]c(=O)c(C#N)cc1-c1ccncc1 | false
CNC[C@H](O)c1cccc(O)c1 | false

Field: next molecule
[Q] What is the recorded call for this molecule in the test? CCOC(=O)N1CCC(=C2c3ccc(Cl)cc3CCc3cccnc32)CC1
[A] true

* * *

test: Identifying Small Molecule Inhibitors of Pancreatic Cancer Stem Cells (SN12C, Spheroid) (AID 1259360); conditions: SN12C spheroid viability; series mostly up to 46.1 µM;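 note: 100% = DMSO-treated cells and 0% = wells without cells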
Results filed as inconclusive are left out. Active and inactive are the calls of the source. Calls follow the shape of the dose curve; as a rule, active = well fitted cell-killing curve with a large enough effect; inconclusive = small, poorly fitted or top-dose-only effect, or effect the other way; inactive = flat fitted curve, though single readings scatter.
Lab note: assign the record to one of active, inactive

Past entries and their recorded results:
Compound | Qualitative Label
COc1ccc(C2=N[C@H](c3ccc(Cl)cc3)[C@H](c3ccc(Cl)cc3)N2C(=O)N2CCNC(=O)C2)c(OC(C)C)c1 | inactive
Cc1cc(-c2ccc(CC(=O)Nc3ccc(-c4cccnc4)cc3)cc2)ccn1 | inactive
CCCn1c(=O)c2[nH]c(C34CC5CC3C[C@@H](C5)C4)nc2n(CCC)c1=O | inactive
NC(=O)c1ccc(I)c([N+](=O)[O-])c1 | inactive
O=S(=O)(N=Cc1c(O)ccc2ccccc12)c1cccs1 | inactive

[Q] What is the recorded call for this compound in the test? CS(=O)(=O)c1cccc(CNc2nc(Nc3ccc4c(c3)CCC(=O)N4)ncc2C(F)(F)F)c1
[A] inactive

[Q] What is the recorded call for this compound in the test? COc1ccc(COc2cc3oc(=O)c4cc(C(C)O)ccc4c3cc2OC)cc1 (configuration not stated)
[A] inactive

* * *

experiment: qHTS profiling for inhibitors of Plasmodium falciparum (3D7) proliferation (AID 743322);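 note: infected erythrocytes exposed to compound for 72 h before lysis; 100% = DMSO vehicle wells and 0% = 0.29 µM artemisinin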; conditions: P. falciparum 3D7 proliferation; at 28.7 µM (top of the series) unless noted
Just a reminder that ties go to rule not met: only remaining parasite growth % (stronger effect = lower value) strictly below 60% counts as rule met.

Compound | Qualitative Label
CC1(C)SCCN(S(=O)(=O)c2ccc(OCC#CCO)cc2)[C@@H]1C(=O)NO | rule not met

[Q] Consider COc1ccc(-c2ccc3c(N4CCOCC4)nc(N4C[C@@H](C)O[C@@H](C)C4)nc3n2)cc1CO . Does its remaining parasite growth % (stronger effect = lower value) lie strictly below 60%?
[A] rule met

[Q] Consider COc1ccc(CC2=NN3C([C@@H](CCc4ccccc4)[C@@H](C)O)=NC(C)C3C(=O)N2)cc1OC (stereo partly drawn) . Does its remaining parasite growth % (stronger effect = lower value) lie strictly below 60%?
[A] rule not met

[Q] Consider Cn1c(=O)c(F)c(Nc2ccc(I)cc2F)c2c(=O)n(C[C@@H](O)CO)cnc21 . Does its remaining parasite growth % (stronger effect = lower value) lie strictly below 60%?
[A] rule not met

[Q] Consider CNCc1ccc(-c2[nH]c3cc(F)cc4c3c2CCNC4=O)cc1 . Does its remaining parasite growth % (stronger effect = lower value) lie strictly below 60%?
[A] rule met

[Q] Consider O=C(O)c1ccc(-c2c[nH]c3ccc(-c4ccccc4)cc23)cc1C1CCCC1 . Does its remaining parasite growth % (stronger effect = lower value) lie strictly below 60%?
[A] rule met

[Q] Consider O=C(OCC#CCSc1nnc(-c2ccc3ccccc3c2)o1)c1cc2ccccc2s1 . Does its remaining parasite growth % (stronger effect = lower value) lie strictly below 60%?
[A] rule not met

[Q] Consider CC(C)(C)OC(=O)CN(Cc1ccc(Cl)cc1)Cc1ccc([N+](=O)[O-])s1 . Does its remaining parasite growth % (stronger effect = lower value) lie strictly below 60%?
[A] rule met

[Q] Consider Cn1cc(-c2ccc3nnc(C(F)(F)c4ccc5ncccc5c4)n3n2)cn1 . Does its remaining parasite growth % (stronger effect = lower value) lie strictly below 60%?
[A] rule met

[Q] Consider S=C(NCc1ccc2c(c1)OCO2)N1CCN(c2ncnc3c2oc2ccccc23)CC1 . Does its remaining parasite growth % (stronger effect = lower value) lie strictly below 60%?
[A] rule not met

[Q] Consider COc1c(Cl)cc2c([nH]c3cnccc32)c1NC(=O)c1cccnc1C . Does its remaining parasite growth % (stronger effect = lower value) lie strictly below 60%?
[A] rule not met

[Q] Consider Cc1[nH]c(=O)c(C#N)cc1-c1ccc2nccn2c1 . Does its remaining parasite growth % (stronger effect = lower value) lie strictly below 60%?
[A] rule not met

[Q] Consider COc1ccc(-c2c(-c3ccc(O)cc3O)n[nH]c2C)cc1 . Does its remaining parasite growth % (stronger effect = lower value) lie strictly below 60%?
[A] rule met

[Q] Consider CN(C)c1ccc(C2Nc3ccc4ccccc4c3C3=C2C(=O)CC(C)(C)C3)cc1Br (stereo not drawn) . Does its remaining parasite growth % (stronger effect = lower value) lie strictly below 60%?
[A] rule met

[Q] Consider Cc1c(CCOc2ccc(C(=O)O)cc2)c2cc(Cl)ccc2n1C(c1ccccc1)c1ccccc1 . Does its remaining parasite growth % (stronger effect = lower value) lie strictly below 60%?
[A] rule not met

[Q] Consider CC(C)OC(=O)C1=CN(C(=O)c2ccc(F)c(F)c2)CC(C)(C)c2c1[nH]c1ccccc21 . Does its remaining parasite growth % (stronger effect = lower value) lie strictly below 60%?
[A] rule met

[Q] Consider CC1(C)Cc2c(-c3ccccc3)c(-c3ccc(Cl)cc3)c(CC(=O)O)n2C1 . Does its remaining parasite growth % (stronger effect = lower value) lie strictly below 60%?
[A] rule met

[Q] Consider CCOc1ccc(Cc2cc([C@@H]3O[C@H](CO)[C@@H](O)[C@H](O)[C@@H]3O)ccc2Cl)cc1 . Does its remaining parasite growth % (stronger effect = lower value) lie strictly below 60%?
[A] rule met

[Q] Consider COc1cc2nccc(Oc3ccc(NC(=O)NC4CC4)c(Cl)c3)c2cc1C(N)=O . Does its remaining parasite growth % (stronger effect = lower value) lie strictly below 60%?
[A] rule not met

[Q] Consider c1ccc(-c2nn3c(c2-c2ccnc4cc(OCCN5CCOCC5)ccc24)CCC3)nc1 . Does its remaining parasite growth % (stronger effect = lower value) lie strictly below 60%?
[A] rule not met

* * *

# maps each entry to its Potency
assay: Quantitative High-Throughput drug screen in 47 multiple myeloma cell lines against the NCATS MIPE library collection: OCIMY7_PLB cell viability assay (AID 1918987); settings: OCI-MY7 myeloma viability, CellTiter-Glo ATP, 48 h; series mostly up to 45.8 µM; note: potency is the fitted concentration of half-maximal effect; nearly all actives have a fitted effect of over 65% in size
Results filed as inconclusive are left out. The source made the active and inactive calls. Calls follow the shape of the dose curve; as a rule, active = well fitted cell-killing curve with a large enough effect; inconclusive = small, poorly fitted or top-dose-only effect, or effect the other way; inactive = no such curve, though single readings can be large or run the other way.

[Q] What value of Potency has been recorded for this entry: CCCS(=O)(=O)Nc1ccc(F)c(C(=O)c2c[nH]c3ncc(Cl)cc23)c1F
[A] 1.32 µM (active)

[Q] What value of Potency has been recorded for this entry: Nc1nccc(-c2ccc3noc(-c4ccc(Cl)cc4)c3c2)n1
[A] 20.9 µM (active)

[Q] What value of Potency has been recorded for this entry: COc1ccccc1[C@H](c1cccc2ccccc12)[C@@](C)(C#N)C(=O)N1CCC(c2cccc(C(F)(F)F)c2)CC1
[A] 5.9 µM (active)

[Q] What value of Potency has been recorded for this entry: Cc1ccc(NC(=O)c2cccc(C(C)(C)C#N)c2)cc1Nc1ccc2ncn(C)c(=O)c2c1
[A] 0.935 µM (active)

[Q] What value of Potency has been recorded for this entry: CCC(=O)N[C@H]1CC[C@H](C(=O)N(C)c2ccc(-c3nc4ccccc4o3)cc2)C1
[A] 8.33 µM (active)

[Q] What value of Potency has been recorded for this entry: CCOc1cc(C=C2C(=O)N(c3ccccc3)N=C2C)cc(Cl)c1OCC(=O)OC
[A] 3.72 µM (active)

[Q] What value of Potency has been recorded for this entry: Cc1csc(NC(=O)c2sc3nc4c(c(C(F)(F)F)c3c2N)CCC4)n1
[A] 2.35 µM (active)

[Q] What value of Potency has been recorded for this entry: O=C(NOC[C@H](O)CO)c1ccc(F)c(F)c1Nc1ccc(I)cc1F
[A] 0.0148 µM (active)

[Q] What value of Potency has been recorded for this entry: CCn1c(-c2nonc2N)nc2c(C#CC(C)(C)O)ncc(OC[C@H]3CCCNC3)c21
[A] 8.33 µM (active)

[Q] What value of Potency has been recorded for this entry: COc1ccc(-c2oc3cc(OC)ccc3c2C(=O)c2ccc(C#N)cc2)cc1
[A] 14.8 µM (active)

[Q] What value of Potency has been recorded for this entry: O=C(c1cc(Cc2n[nH]c(=O)c3ccccc23)ccc1F)N1CCN(C(=O)C2CC2)CC1
[A] 2.64 µM (active)

[Q] What value of Potency has been recorded for this entry: CN1CCN(CCCN2c3ccccc3Sc3ccc(C(F)(F)F)cc32)CC1
[A] 5.9 µM (active)

[Q] What value of Potency has been recorded for this entry: CC1(C)CNc2cc(NC(=O)c3cccnc3NCc3ccncc3)ccc21
[A] 0.372 µM (active)
